TEST METHOD NOTES: Experimental log P, shake-flask method
Format: physicochemical
TEST CONDITIONS: n-octanol/phosphate buffer pH 7.4, read-out: Exp. Log P
VALUE KIND: logP

Before answering, review these 3 worked examples.
c1ccc(-c2cn3ccnc3c(-c3ccc4c(c3)ncn4C3CCCCC3)n2)cc1
1.59
Fc1ccccc1-c1cn2ccnc2c(-c2ccc3c(c2)ncn3C2CCCCC2)n1
1.77
c1cn2cc(-c3ccc4c(c3)ncn4C3CCCCC3)nc(-c3ccc4c(c3)ncn4C3CCCCC3)c2n1
2.16

In plain terms, "Clc1ccc(-c2cn3ccnc3c(-c3ccc4c(c3)ncn4C3CCCCC3)n2)cc1" has a documented logP of 1.34

In plain terms, "Cc1cccc(-c2cn3ccnc3c(-c3ccc4c(c3)ncn4C3CCCCC3)n2)c1" has a documented logP of 1.54

In plain terms, "CC(=O)c1ccc(-c2cn3ccnc3c(-c3ccc4c(c3)ncn4C3CCCCC3)n2)cc1" has a documented logP of 1.41

In plain terms, "c1ccc2c(-c3cn4ccnc4c(-c4ccc5c(c4)ncn5C4CCCCC4)n3)cccc2c1" has a documented logP of 1.48

In plain terms, "Fc1ccc(-c2cn3ccnc3c(-c3ccc4c(c3)ncn4C3CCCCC3)n2)cc1" has a documented logP of 1.26
